Biological target: plasma purified human antithrombin III (AT-III) in complex with full-length unfractionated heparin (UFH)
Please go through the items and note down their K0.5-mut/K0.5-wt.
Give a bare numeral; the unit fold is implied.

Request: Which K0.5-mut/K0.5-wt is listed for FIXa R318Y/R338E/E410N/T412V (protein) chain 1: YNSGKLEEFVQGNLERECMEEKCSFEEAREVFENTERTTEFWKQYVDGDQCESNPCLNGGSCKDDINSYECWCPFGFEGKNCELDVTCNIKNGRCEQFCKNSADNKVVCSCTEGYRLAENQKSCEPAVPFPCGRVSVSQTSKLTR chain 2: VVGGEDAKPGQFPWQVVLNGKVDAFCGGSIVNEKWIVTAAHCVETGVKITVVAGEHNIEETEHTEQKRNVIRIIPHHNYNAAINKYNHDIALLELDEPLVLNSYVTPICIADKEYTNIFLKFGSGYVSGWGRVFHKGYSALVLQYLRVPLVDRATCLESTKFTIYNNMFCAGFHEGGRDSCQGDSGGPHVTEVEGTSFLTGIISWGEECAMKGKYGIYTKVSRYVNWIKNKVKLT ?
Response: 252

Request: Also FIXa K228N/K247N/N249S (protein) chain 1: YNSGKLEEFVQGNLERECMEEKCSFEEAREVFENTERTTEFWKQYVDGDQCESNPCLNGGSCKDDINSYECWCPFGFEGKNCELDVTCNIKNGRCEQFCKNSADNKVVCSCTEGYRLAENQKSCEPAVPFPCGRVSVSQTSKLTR chain 2: VVGGEDAKPGQFPWQVVLNGKVDAFCGGSIVNEKWIVTAAHCVETGVNITVVAGEHNIEETEHTEQNRSVIRIIPHHNYNAAINKYNHDIALLELDEPLVLNSYVTPICIADKEYTNIFLKFGSGYVSGWGRVFHKGRSALVLQYLRVPLVDRATCLRSTKFTIYNNMFCAGFHEGGRDSCQGDSGGPHVTEVEGTSFLTGIISWGEECAMKGKYGIYTKVSRYVNWIKEKTKLT , if possible.
Response: 4.4

From: patent US20210230570
